System: UniProt O75751
Sequence (O75751 whole entry): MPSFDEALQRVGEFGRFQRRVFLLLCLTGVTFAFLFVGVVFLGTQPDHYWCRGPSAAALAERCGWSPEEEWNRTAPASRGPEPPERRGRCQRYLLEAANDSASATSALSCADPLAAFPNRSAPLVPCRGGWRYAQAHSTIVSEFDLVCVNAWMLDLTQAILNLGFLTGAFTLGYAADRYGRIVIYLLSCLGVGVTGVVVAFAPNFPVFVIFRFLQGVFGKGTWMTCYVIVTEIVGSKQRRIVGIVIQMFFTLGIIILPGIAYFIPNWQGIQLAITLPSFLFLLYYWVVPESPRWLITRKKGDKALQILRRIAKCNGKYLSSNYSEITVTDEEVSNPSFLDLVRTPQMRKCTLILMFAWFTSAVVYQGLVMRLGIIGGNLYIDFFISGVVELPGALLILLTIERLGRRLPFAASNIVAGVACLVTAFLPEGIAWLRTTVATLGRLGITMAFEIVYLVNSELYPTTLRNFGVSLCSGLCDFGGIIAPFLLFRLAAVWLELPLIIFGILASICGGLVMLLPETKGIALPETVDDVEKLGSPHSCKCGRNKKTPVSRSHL
Experiment summary: TP_TRANSPORTER: inhibition of MPP+ uptake (MPP+: 0.2 uM) in OCT3-expressing HEK293 cells
Assay endpoint: IC50 (µM)
Note: unit µM is implicit; provide only the numeric part.

Some compounds with recorded IC50:
CC[n+]1c(CC2C=C(C)N=C(c3ccccc3)N2C)ccc2ccccc21 (stereo not drawn)    1.76
CC[N+](CC)(CC)CC    10300

Now for a further compound.
IN: Quick check: IC50 of Clc1cccc(Cl)c1N=C1NCCN1 ?
OUT: 79.3
